Test system: HT29 colon
test-protocol: NCI-60 one-dose screen, 48 h (100 = growth as untreated, 0 = no growth, -100 = all killed)
reported-conditions: 10 µM unless noted
Compounds without any hit were thinned out: in the full panel of roughly 83,000, 20% have a hit.
Lab note: anything with growth below 80% is marked T; values at 80% or higher are marked F.

Lab note: growth threshold 80%. Does this compound come in strictly under it? COc1ccc(Cc2nc3cc(OC)c(OC)cc3c(=O)[nH]2)cc1 T

A record lists CN1CCN(c2cc(F)c(NC3=C(Cl)C(=O)c4ncccc4C3=O)c(F)c2)CC1 . Is its growth below 80%? T

Find out if reported growth for NC(=O)c1cccc(-c2ccccc2N2CCCCC2)c1 is less than 80% F

For O=C(Nc1nc(-c2ccccc2Cl)cs1)c1cc(-c2ccccc2)nc2ccc(Cl)cc12 , is the recorded growth below the cut-off of 80%? F

Lab note: confirm whether the reported growth for this compound is below 80%, equality not counting. compound: CCCCCCCCCCN=C(N)N=C(N)N T

Below 80% on growth? Entry COc1ccc(Cn2nc(-c3ccccc3)c3c2CCc2cnoc2-3)cc1 F

Item CC(C)Cc1ccc(C(C)C(=O)NCc2ccc(Cn3c(=O)sn(-c4ccc(Cl)cc4)c3=O)cc2)cc1 (stereo not given) : growth beneath 80%, strictly? T

Below 80% on growth? Entry CCOC(=O)c1c(O)cc(-c2ccccc2)cc1-c1sc(N(C)Cc2ccccc2)nc1Cl F

Would you kindly verify if growth of O=C1NC(=S)NC(=O)C1=Cc1cccc(C=C2C(=O)NC(=S)NC2=O)c1 is strictly less than 80%? F

Here's an entry: COc1ccc(-c2nc(N/N=C/c3cccc(O)c3)nc(N3CCOCC3)c2C#N)cc1 . Is its growth below 80%? T

----------
System: OVCAR-5 ovarian
test-protocol: NCI-60 one-dose screen, 48 h (100 = growth as untreated, 0 = no growth, -100 = all killed)
reported-conditions: 10 µM unless noted
The panel holds about 83,000 compounds, 20% with a hit somewhere; the sample as a whole holds those more often.
Below, each entry is listed alongside its reported growth.
Quick note: give the figure in %, leave out the unit.

Consider the following illustrative entries.
>>> value_reported("COc1ccc(CNCCN2C(=O)c3ccc4c5c(ccc(c35)C2=O)C(=O)N(CCNCc2ccc(OC)cc2)C4=O)cc1")
-72.7
>>> value_reported("C#CCNC(=O)[C@H](Cc1ccccc1)NC(=O)[C@]12CC[C@@H](C(=C)C)[C@@H]1[C@H]1CC[C@@H]3[C@@]4(C)Cc5c([nH]c6ccccc56)C(C)(C)[C@@H]4CC[C@@]3(C)[C@]1(C)CC2")
95.8
>>> value_reported("CC[C@H](C)[C@@H]1NC(=O)[C@H](Cc2ccc(O)cc2)N(C)C(=O)[C@H](Cc2ccccc2)NC(=O)CN(C)C(=O)[C@@H]2CCCN2C(=O)[C@@H](Cc2ccccc2)N(C)C(=O)[C@H](CC(C)C)NC1=O")
-7.89
>>> value_reported("COc1ccc(-c2nc(N/N=C/c3c[nH]c4ccccc34)nc(N3CCOCC3)c2C#N)cc1")
125
>>> value_reported("Cc1ccc(-c2c(Br)c(OC(=O)CO[C@@H]3C[C@H](C)CC[C@H]3C(C)C)c(-c3ccc(C)cc3C)c(Br)c2OC(=O)CO[C@H]2C[C@@H](C)CC[C@@H]2C(C)C)c(C)c1")
102

Suppose we examine the molecule CCOC(=O)c1c(C)nc2c(c1N)C(=O)C(=O)N2Cc1ccc(C(F)(F)F)cc1 ; what growth value has been reported? 91.7

Dear colleague, I am looking for the recorded growth of the following molecule: CC(C)Cc1ccc(C(C)C(=O)NCc2ccc(Cn3c(=O)sn(-c4ccc(Cl)cc4)c3=O)cc2)cc1 (configuration not stated) 89.3

What does the record list as growth for Nc1nc(N)nc(NCc2ccccc2)n1 ? 103

Given the entry COC(=O)C1=C(C(=O)ONCCN(C)C)C2C=CC1(C(Cc1ccccc1)Nc1ccc(F)cc1)O2 (configuration not stated) , report its measured growth. 100

----------
Tested on: T-47D breast
test-protocol: NCI-60 one-dose screen, 48 h
reported-conditions: 10 µM unless noted
The panel holds about 83,000 compounds, 20% with a hit somewhere; the sample as a whole holds those more often. Calls of active or inactive are those of the source. The calls were made as follows: active = growth percent below 10; inactive = the rest.
Pick from 1.0 (active), 0.0 (inactive) when you respond.

Please review the following examples before continuing.
>>> class_assignment("Cc1c2c(cc[n+]1Cc1ccccc1)c1ccc(OCC3CCCCC3)cc1n2CC1CCCCC1")
1.0
>>> class_assignment("CS(=O)(=O)c1ccc(-c2cc(-c3nnc(SCC(=O)Nc4ccc(C(=O)/C=C/c5ccc(Cl)cc5)cc4)n3-c3ccccc3)c3ccccc3n2)cc1")
0.0
>>> class_assignment("CN(C)C(=O)c1cc2cnc(Nc3ccc(-c4csc5c(=O)cc(N6CCOCC6)oc45)cc3)nc2n1C1CCCC1")
1.0
>>> class_assignment("CCCCc1ccc(Nc2nnc(SCC(=O)NC(=O)NCC)s2)cc1")
0.0
>>> class_assignment("Fc1ccc(C2CC(c3cccc(Nc4ccncc4)c3)=NN2c2ccc(Cl)cc2)cc1 (stereo not given)")
0.0
>>> class_assignment("Clc1ccc2c(c1)c(-c1ccccc1)nc1nncn12")
0.0
>>> class_assignment("CCNC(=O)c1[nH]cc(-c2ccc(OC)cc2)c1-c1cc(OC)c(OC)c(OC)c1")
0.0
>>> class_assignment("Nc1c(Cl)cc([N+](=O)[O-])cc1Br")
0.0
>>> class_assignment("O=C(OCc1nc2nc(Cl)nc(N3CCOCC3)c2[nH]1)n1ccnc1")
1.0

# fetch the recorded call for Nc1nc(SN=Nc2ccc(S(N)(=O)=O)cc2)c2[nH]cnc2n1 here 0.0

----------
System: HCT-116 colon
test-protocol: NCI-60 one-dose screen, 48 h (100 = growth as untreated, 0 = no growth, -100 = all killed)
reported-conditions: 10 µM unless noted
Protocol: Growth inhibition of the HCT-116 human tumor cell line is measured as a screen for anti-cancer activity. Cells are grown in 96 well plates and exposed to the test compound for 48 hours. Compounds are tested at a single concentration, which is 10^-5 M for most compounds. The reported endpoint is percent growth (GI% or GIPRCNT), where numbers from 0 - 100% represent growth inhibition, and numbers from -100% - 0 represent cell death. For example, a value of 40 represents 60% growth inhibition. […]
This is part of a sample that, as a whole, favours compounds with a hit. Of some 83,000 tested, about 20% had one in any assay. Active and inactive are the calls of the source. Rule for the calls: active = growth percent below 10; inactive = the rest.
As shown below, each of these molecules has a reported growth value.

// below: answered molecules
>>> value_reported("Cc1cc(C)n(Nc2nc3ccccc3[nH]c2=O)c(=O)c1C#N")
"96.1% (inactive)"
>>> value_reported("Cn1ncc2c(Nc3ccccc3Cl)nc(Cl)nc21")
"99.4% (inactive)"
>>> value_reported("COc1cc(/C=C2\\C(=O)N(Cc3ccc(Cl)cc3)c3ccccc32)cc(OC)c1OC")
"-23.4% (active)"
>>> value_reported("CS(=O)(=O)Nc1cc(-c2ccc3ncnc(Nc4ccc5[nH]ncc5c4)c3c2)cnc1Cl")
"92.2% (inactive)"
>>> value_reported("O=C(/C=C\\c1ccc(OCCCCCC[P+](c2ccccc2)(c2ccccc2)c2ccccc2)cc1)c1ccc2c(c1)OCCO2")
"-73.1% (active)"
>>> value_reported("Cc1ccc(C2C3CC4CCCCC4N3[C@@]3(C(=O)Nc4cc(Cl)ccc43)C2C(=O)c2nc3ccccc3[nH]2)cc1 (stereo not given in full)")
"19.5% (inactive)"
>>> value_reported("O=C(Nc1sc2c(c1C(=O)O)CCCC2)c1cccc(C(F)(F)F)c1")
"80.2% (inactive)"
>>> value_reported("CC(O)/C=C/C=C/C(O)CC/C=C/C(=O)NCC(C)(C)O (stereo not given)")
"93.5% (inactive)"

What value of measured growth is listed for CC(C)(C#N)N1CCN(c2ccccc2Cl)CC1 ? 98.4% (inactive)

Give its growth value. Item: C(=N\Nc1ncc(-c2cc3cc4c(cc3o2)OCO4)s1)/c1c[nH]c2ccccc12 -1.24% (active)

Looking for the measured growth of COc1cc(/C=N/NC(=O)c2ccccc2Nc2cccc(C(F)(F)F)c2)ccc1O , can you help? 67.2% (inactive)

Form field: reported growth of Clc1cc(Cl)cc(N2N=C(c3cccc(Nc4ccncc4)c3)CC2c2ccc(Br)cc2)c1 (stereo not given) 108% (inactive)

Fill in the blank: the reported growth of COc1ccc(C2CC(c3cccc(Nc4ccncc4)c3)=NN2c2cc(Cl)cc(Cl)c2)cc1 (stereo not given) is ____. 83.9% (inactive)

----------
Here, each record is paired with measured growth data.
Tested on: MALME-3M melanoma
test-protocol: NCI-60 one-dose screen, 48 h (100 = growth as untreated, 0 = no growth, -100 = all killed)
reported-conditions: 10 µM unless noted
The panel holds about 83,000 compounds, 20% with a hit somewhere; the sample as a whole holds those more often.
Response body: numeric value in %, unit text excluded.

// known answers, use as guide
>>> value_reported("C(=C\\c1n(Cc2ccc3ccccc3c2)c(-c2ccccc2)c(-c2ccccc2)[n+]1Cc1ccc2ccccc2c1)/c1ccccc1")
-86.9
>>> value_reported("CC(=O)c1c(-c2ccc(OC(F)(F)F)cc2)nc2ccccn12")
88.9
>>> value_reported("COc1cc(C2CC(c3cccc(Nc4ccncc4)c3)=NN2c2cc(Cl)cc(Cl)c2)cc(OC)c1OC (stereo not given)")
-77.9
>>> value_reported("COc1ccc(C(=O)c2cc3c(N)c(C(=O)Nc4cccc5ccccc45)sc3nc2C)cc1")
55
>>> value_reported("NC(=S)N/N=C(/c1ccccc1)c1ccccc1N")
93.7

Which value of growth has been reported for O=C1Nc2c(ccc(Cl)c2Cl)/C1=C/c1ccc(F)cc1 in the records? 105
